B1: library; numbered along this chain (parent)
chain: MAAAGGARLLRAASAVLGGPAGRWLHHAGSRAGSSGLLRNRGPGGSAEASRSLSVSARARSSSEDKITVHFINRDGETLTTKGKVGDSLLDVVVENNLDIDGFGACEGTLACSTCHLIFEDHIYEKLDAITDEENDMLDLAYGLTDRSRLGCQICLTKSMDNMTVRVPETVADARQSIDVGKTS

Variants of: B1
Experiment: scaled log2 fold change in cell abundance, elesclomol vs control (0 = silent mean, 1 = nonsense mean) (scaled log2 ratio); higher = higher viability under elesclomol (loss of FDX1 cuproptosis function);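 note: variant abundance is its share of total variant reads in each endpoint sample, from next-generation sequencing of the integrated ORF PCR-amplified out of genomic DNA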
Details: with HEK293T FDX1 KO; elesclomol 40 nM; glucose 10 mM; 11 days
Lab note: compare scaled log2 fold change against -0.01. Equal or greater, write condition met. Smaller, write condition not met.

- Mutation name: "R51G"
  Class label: "condition not met"
- Mutation name: "L53E"
  Class label: "condition not met"
- Mutation name: "S63L"
  Class label: "condition not met"
- Mutation name: "G45N"
  Class label: "condition met"
- Mutation name: "V180P"
  Class label: "condition met"
- Mutation name: "L53M"
  Class label: "condition met"
- Mutation name: "G36R"
  Class label: "condition met"
- Mutation name: "A12Y"
  Class label: "condition met"
- Mutation name: "L38F"
  Class label: "condition met"
- Mutation name: "I118S"
  Class label: "condition not met"
- Mutation name: "I118Q"
  Class label: "condition met"
- Mutation name: "W24E"
  Class label: "condition not met"
- Mutation name: "D161N"
  Class label: "condition not met"
- Mutation name: "V167L"
  Class label: "condition not met"
